Task for the reader: assign each of the following compounds its reported Kd.
- Experimental Target: S100B (Homo sapiens, UniProt P04271)
- Construct: made in house; host or cells: Escherichia coli BL21(DE3)
- Sequence (P04271 1-92): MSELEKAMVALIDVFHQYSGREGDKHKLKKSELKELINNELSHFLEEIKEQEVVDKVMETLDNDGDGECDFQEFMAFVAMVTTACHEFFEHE
- Procedure Details: Competition pull-down with native ligand RSK1 (689–735)
- Format: binding
- Condition Description: H14 library; competitor peptide 200 µM; read-out: Surface mapping KD (apparent), competition
Form entry: value (µM) — number only.

Ask: Need Kd, item CSCC[C@@H](CC(=O)N[C@H]1CCCC[C@@H]1C(=O)N[C@H]1CCCC[C@@H]1C(=O)N[C@@H](CC(N)=O)CC(=O)N[C@H]1CCCC[C@@H]1C(N)=O)NC(=O)[C@H]1CCCC[C@@H]1N
Reply: 449

Ask: Please answer likewise for CSCC[C@@H](CC(=O)N[C@H]1CCCC[C@@H]1C(=O)N[C@H]1CCCC[C@@H]1C(=O)N[C@H](CC(=O)N[C@H]1CCCC[C@@H]1C(N)=O)Cc1c[nH]c2ccccc12)NC(=O)[C@H]1CCCC[C@@H]1N
Reply: 131

Ask: Cool, now CC(C)[C@@H](CC(=O)N[C@H]1CCCC[C@@H]1C(=O)N[C@H]1CCCC[C@@H]1C(=O)N[C@H](CC(=O)N[C@H]1CCCC[C@@H]1C(N)=O)Cc1ccccc1)NC(=O)[C@H]1CCCC[C@@H]1N
Reply: 91

###

- Experimental Target: Gal-1 (Homo sapiens, UniProt P09382)
- Construct: made in house; host or cells: E. coli BL21(DE3)
- Sequence (P09382 whole entry): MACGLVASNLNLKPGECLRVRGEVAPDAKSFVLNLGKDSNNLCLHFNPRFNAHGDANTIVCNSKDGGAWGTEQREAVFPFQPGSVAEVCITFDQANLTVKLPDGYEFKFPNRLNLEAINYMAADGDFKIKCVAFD
- Procedure Details: Pull-down assay with immobilized protein and LSM libraries
- Type: binding
- Condition Description: H14 library; 1:1 binding assumed; read-out: Surface mapping KD (apparent)
Entries whose Kd is below 300 µM take Condition met; entries at or above 300 µM take Condition not met.

Ask: Hi there! Is Kd for CSCC[C@@H](CC(=O)N[C@H]1CCCC[C@@H]1C(=O)N[C@H]1CCCC[C@@H]1C(=O)N[C@H](CC(=O)N[C@H]1CCCC[C@@H]1C(N)=O)CC(C)C)NC(=O)[C@H]1CCCC[C@@H]1N [H14 ML] below 300 µM, do you know?
Reply: Condition met

Ask: Next up: CSCC[C@@H](CC(=O)N[C@H]1CCCC[C@@H]1C(=O)N[C@H]1CCCC[C@@H]1C(=O)N[C@@H](CC(N)=O)CC(=O)N[C@H]1CCCC[C@@H]1C(N)=O)NC(=O)[C@H]1CCCC[C@@H]1N [H14 MN]
Reply: Condition not met

Ask: Similarly, CSCC[C@@H](CC(=O)N[C@H]1CCCC[C@@H]1C(=O)N[C@H]1CCCC[C@@H]1C(=O)N[C@H](CC(=O)N[C@H]1CCCC[C@@H]1C(N)=O)Cc1ccc(O)cc1)NC(=O)[C@H]1CCCC[C@@H]1N [H14 MY] ?
Reply: Condition met

Ask: Further, for NC(=O)CC[C@@H](CC(=O)N[C@H]1CCCC[C@@H]1C(N)=O)NC(=O)[C@H]1CCCC[C@@H]1NC(=O)[C@H]1CCCC[C@@H]1NC(=O)C[C@H](CCC(N)=O)NC(=O)[C@H]1CCCC[C@@H]1N [H14 QQ] ?
Reply: Condition met

Ask: Again, but for N=C(N)NCCC[C@@H](CC(=O)N[C@H]1CCCC[C@@H]1C(N)=O)NC(=O)[C@H]1CCCC[C@@H]1NC(=O)[C@H]1CCCC[C@@H]1NC(=O)C[C@H](CO)NC(=O)[C@H]1CCCC[C@@H]1N [H14 SR]
Reply: Condition met

Ask: Next: CC[C@H](C)[C@@H](CC(=O)N[C@H]1CCCC[C@@H]1C(N)=O)NC(=O)[C@H]1CCCC[C@@H]1NC(=O)[C@H]1CCCC[C@@H]1NC(=O)C[C@H](C)NC(=O)[C@H]1CCCC[C@@H]1N [H14 AI]
Reply: Condition met

Ask: # repeat for N=C(N)NCCC[C@@H](CC(=O)N[C@H]1CCCC[C@@H]1C(N)=O)NC(=O)[C@H]1CCCC[C@@H]1NC(=O)[C@H]1CCCC[C@@H]1NC(=O)C[C@H](Cc1ccc(O)cc1)NC(=O)[C@H]1CCCC[C@@H]1N [H14 YR]
Reply: Condition not met

Ask: Same question for NC(=O)[C@H]1CCCC[C@@H]1NC(=O)C[C@H](Cc1ccc(O)cc1)NC(=O)[C@H]1CCCC[C@@H]1NC(=O)[C@H]1CCCC[C@@H]1NC(=O)C[C@H](CO)NC(=O)[C@H]1CCCC[C@@H]1N [H14 SY] please.
Reply: Condition not met

Ask: Query CC(C)C[C@@H](CC(=O)N[C@H]1CCCC[C@@H]1C(N)=O)NC(=O)[C@H]1CCCC[C@@H]1NC(=O)[C@H]1CCCC[C@@H]1NC(=O)C[C@H](CCC(N)=O)NC(=O)[C@H]1CCCC[C@@H]1N [H14 QL] next
Reply: Condition not met

Cited source: paper PMC8162404
